System: BT-549 breast
Assay: NCI-60 one-dose screen, 48 h (100 = growth as untreated, 0 = no growth, -100 = all killed)
Conditions: 100 µM
The panel holds about 83,000 compounds, 20% with a hit somewhere; the sample as a whole holds those more often.
Assay Endpoint: growth (%)
Just the number in %, nothing appended.

Q. Tell me measured growth for CN(C)C(=O)c1ccc(SC(=S)NCc2ccccc2)cc1 please.
A. -79.3

Q. Tell me measured growth for O=C(O)c1c(Cl)c(Cl)c(Cl)c(Cl)c1-c1c2cc(I)c(=O)c(I)c-2oc2c(I)c(O)c(I)cc12 please.
A. -47.5

Q. Tell me measured growth for O=C(Nc1c(Cl)cccc1Cl)Oc1cccc2cccnc12 please.
A. 23.5

Q. Tell me measured growth for COc1ccc(-c2cscc2N)cc1 please.
A. -32.7

Q. Tell me measured growth for O=C(Nc1cccc(Br)c1)Oc1cccc2cccnc12 please.
A. 12.7

====

Tested on: SR leukemia
Test: NCI-60 one-dose screen, 48 h (100 = growth as untreated, 0 = no growth, -100 = all killed)
Conditions: 10 µM unless noted
The panel holds about 83,000 compounds, 20% with a hit somewhere; the sample as a whole holds those more often.
Provide the recorded growth for the entries that follow.
Just the number in %, nothing appended.

Q. Tell me measured growth for N#CSCC(=O)c1ccc(Cl)cc1 please.
A. 69.9

Q. Tell me measured growth for N#CSCc1c(Cl)cccc1Cl please.
A. 59.5

Q. Tell me measured growth for CC(=Nc1ccc(N(C)C)cc1)c1ccccc1 please.
A. 32.6

Q. Tell me measured growth for Oc1c(Br)c(Br)c(O)c(Br)c1Br please.
A. 63.2

Q. Tell me measured growth for N#CSCc1ccc(CSC#N)c(Cl)c1 please.
A. 6.77

Q. Tell me measured growth for O=C1C2=C(Nc3cc([N+](=O)[O-])ccc3N2)OC1c1c2ccccc2cc2ccccc12 (configuration not stated) please.
A. 23.5

Q. Tell me measured growth for Cc1ccc2c(ccc3c[n+]4c5ccccc5ccc4n32)c1 please.
A. -12.5

====

Test system: SF-539 CNS
Experiment: NCI-60 one-dose screen, 48 h (100 = growth as untreated, 0 = no growth, -100 = all killed)
Details: 100 µM
Compounds without any hit were thinned out: in the full panel of roughly 83,000, 20% have a hit.
Assay Endpoint: growth (%)
Just the number in %, nothing appended.

Q. Tell me measured growth for CN(C)C(=O)c1ccc(SC(=S)NCc2ccccc2)cc1 please.
A. -62.3

Q. Tell me measured growth for O=C(Nc1cccc(Br)c1)Oc1cccc2cccnc12 please.
A. 9.58

Q. Tell me measured growth for O=C(O)c1c(Cl)c(Cl)c(Cl)c(Cl)c1-c1c2cc(I)c(=O)c(I)c-2oc2c(I)c(O)c(I)cc12 please.
A. -67.5

Q. Tell me measured growth for COc1ccc(-c2cscc2N)cc1 please.
A. 44.3

====

Tested on: NCI-H522 lung
Assay: NCI-60 one-dose screen, 48 h
Conditions: 10 µM unless noted
Compounds without any hit were thinned out: in the full panel of roughly 83,000, 20% have a hit. Calls of active or inactive are those of the source. The calls were made as follows: active = growth percent below 10; inactive = the rest.
Your response should consist of one outcome taken from true (1) (active), false (0) (inactive)

Q. Please state the recorded outcome for this compound: O=C1OCc2cccc3cccc1c23
A. false (0)

Q. Please state the recorded outcome for this compound: NC(=S)N/N=C\c1nccc2c(C(F)(F)C(F)(F)C(F)(F)F)cccc12
A. true (1)

Q. Please state the recorded outcome for this compound: COc1cc(/C=C(/C)C[N+](=O)[O-])ccc1O
A. false (0)

Q. Please state the recorded outcome for this compound: O=C(/C=C\c1ccccc1)N1c2ccccc2CC1c1c[nH]c2ccccc12 (configuration not stated)
A. false (0)

Q. Please state the recorded outcome for this compound: CCCCCCCCCCCCCCNCc1ccccc1
A. false (0)

Q. Please state the recorded outcome for this compound: C[N+](C)=c1ccc2nc3c(cc(NCCCNc4cc5oc6cc(=[N+](C)C)ccc-6nc5c5ccccc45)c4ccccc43)oc-2c1
A. false (0)

Q. Please state the recorded outcome for this compound: CCOC(=O)/C(=C\c1ccc(-c2ccccc2)cc1)C(C)=O
A. false (0)

Q. Please state the recorded outcome for this compound: c1ccc2c(c1)Nc1cc3ccccc3cc1N2
A. true (1)

Q. Please state the recorded outcome for this compound: CCN(CC)CCOc1ccc(-c2nc3cc(Cl)ccc3s2)cc1
A. true (1)

Q. Please state the recorded outcome for this compound: CC(=O)C(=Cc1ccc(C=C(C(C)=O)C(C)=O)cc1)C(C)=O
A. true (1)

Q. Please state the recorded outcome for this compound: COc1ccc2nc3cc(Cl)ccc3c(NCCNc3c4ccc(Cl)cc4nc4ccc(OC)cc34)c2c1
A. true (1)

Q. Please state the recorded outcome for this compound: Cc1cc2nc(CS)[nH]c2cc1C
A. false (0)

Q. Please state the recorded outcome for this compound: O=C1c2ccccc2C(=O)c2sc(Nc3ccc(Cl)cc3)nc21
A. false (0)

Q. Please state the recorded outcome for this compound: CC(=Nc1ccc(N(C)C)cc1)c1ccccc1
A. false (0)

Q. Please state the recorded outcome for this compound: COC(=O)c1nc(=S)[nH]c(C(=O)OC)c1C(=O)c1ccccn1
A. false (0)

Q. Please state the recorded outcome for this compound: N#CSCc1c(Cl)cccc1Cl
A. false (0)

Q. Please state the recorded outcome for this compound: CNC(=O)N/N=C/c1ccc([N+](=O)[O-])o1
A. false (0)

Q. Please state the recorded outcome for this compound: O=C(Nc1ccccc1)Oc1c(Cl)c(Cl)c(Cl)c(Cl)c1Cl
A. false (0)

Q. Please state the recorded outcome for this compound: N#Cc1ccc([N+](=O)[O-])o1
A. false (0)

Q. Please state the recorded outcome for this compound: CCC(=O)Sc1ccccc1C(=O)Nc1ccc(Cl)cc1
A. false (0)

Q. Please state the recorded outcome for this compound: NC1=CC(=O)c2ccccc2C1=O
A. false (0)

Q. Please state the recorded outcome for this compound: Cc1ccc(C(=Nc2ccccc2)N=P(c2ccccc2)(c2ccccc2)c2ccccc2)cc1
A. true (1)

Q. Please state the recorded outcome for this compound: CCCCCCC(C)c1ccccc1O (configuration not stated) (tested in a mixture with another compound)
A. false (0)

Q. Please state the recorded outcome for this compound: C=CCOc1ccc(N=NC(C#N)C#N)cc1
A. true (1)

Q. Please state the recorded outcome for this compound: CN(C)C(=O)SC1=C(c2c(Cl)cccc2Cl)C(=O)c2ccccc21
A. true (1)

Q. Please state the recorded outcome for this compound: N#CSCc1ccc(CSC#N)c(Cl)c1
A. false (0)

Q. Please state the recorded outcome for this compound: CCC1OC(OC)C=CC1=O (configuration not stated)
A. false (0)

====

Test system: PC-3 prostate
Assay: NCI-60 one-dose screen, 48 h
Conditions: 10 µM unless noted
Compounds without any hit were thinned out: in the full panel of roughly 83,000, 20% have a hit. Activity calls are given as the source filed them. The calls were made as follows: active = growth percent below 10; inactive = the rest.
Your response should consist of one outcome taken from True (active), False (inactive)

Q. Please state the recorded outcome for this molecule: Nc1ccc(SSc2ccc(N)cc2)cc1
A. False

Q. Please state the recorded outcome for this molecule: CN1c2ccccc2C(C)(C)C12C=Cc1cc(O)ccc1O2 (configuration not stated)
A. False

Q. Please state the recorded outcome for this molecule: N#CSCc1ccc(Cl)c(CSC#N)c1
A. False

Q. Please state the recorded outcome for this molecule: CCCCCCCCCCCCCCCC[N+](C)(CCO)Cc1cnc[nH]1 (configuration not stated)
A. True

Q. Please state the recorded outcome for this molecule: CCOc1ccc(-c2nc3ccc(-c4nc5ccc(N6CCN(C)CC6)cc5[nH]4)cc3[nH]2)cc1
A. True

Q. Please state the recorded outcome for this molecule: CCN1/C(=C\c2cc[n+](CC)c3ccccc23)C=Cc2ccccc21
A. False

Q. Please state the recorded outcome for this molecule: CN(C)c1ccc(N=Nc2cccc3ccccc23)cc1
A. False

Q. Please state the recorded outcome for this molecule: CC(C)(C)CC(C)(C)c1ccc(OCCSC(=N)N)cc1
A. False

Q. Please state the recorded outcome for this molecule: CCC(CCCN(CC)CCc1ccccc1)OC(=O)c1cc(OC)c(OC)c(OC)c1 (configuration not stated)
A. False

Q. Please state the recorded outcome for this molecule: O=C1c2ccccc2C(=O)c2sc(Nc3ccc(Cl)cc3)nc21
A. True

Q. Please state the recorded outcome for this molecule: CCCCCCCCCCCCCCNCc1ccccc1
A. False

Q. Please state the recorded outcome for this molecule: N#CSCC(=O)c1ccc(Cl)cc1
A. False

====

Tested on: PC-3 prostate
Assay: NCI-60 one-dose screen, 48 h (100 = growth as untreated, 0 = no growth, -100 = all killed)
Settings: 10 µM unless noted
Compounds without any hit were thinned out: in the full panel of roughly 83,000, 20% have a hit. The source made the active and inactive calls. The calls were made as follows: active = growth percent below 10; inactive = the rest.
Assay Endpoint: growth

Q. Tell me measured growth for Cc1ccc2c(ccc3c[n+]4c5ccccc5ccc4n32)c1 please.
A. 8.46% (active)

Q. Tell me measured growth for CCOC(=O)/C(=C\c1ccc(-c2ccccc2)cc1)C(C)=O please.
A. 107% (inactive)

Q. Tell me measured growth for c1ccc2c(c1)Nc1cc3ccccc3cc1N2 please.
A. 24.9% (inactive)

Q. Tell me measured growth for CC1OC(OC2C(OC3CCC4(C)C(CCC5(C)C4CC=C4C6CC(C)(C)CCC6(CO)C(O)CC45C)C3(C)C)OC(C(=O)O)C(OC3OC(COC4OC(CO)C(O)C(O)C4O)C(O)C(O)C3O)C2O)C(O)C(O)C1O (stereo unspecified) please.
A. -74.3% (active)

Q. Tell me measured growth for CN(C)C(=O)SC1=C(c2c(Cl)cccc2Cl)C(=O)c2ccccc21 please.
A. 77% (inactive)

Q. Tell me measured growth for Cc1cc2nc(CS)[nH]c2cc1C please.
A. 87.4% (inactive)

Q. Tell me measured growth for O=C1c2ccccc2C(=O)c2sc(Nc3cccc(Cl)c3)nc21 please.
A. 3.03% (active)

Q. Tell me measured growth for Cc1c2ccccc2c(C)c2c1ccc1ccccc12 please.
A. 83% (inactive)

Q. Tell me measured growth for CCCCCCC(C)c1ccccc1O (stereo unspecified) (tested in a mixture with another compound) please.
A. 94.8% (inactive)

Q. Tell me measured growth for CC1(C)CC([P+](c2ccccc2)(c2ccccc2)c2ccccc2)=NN1 please.
A. 29.1% (inactive)

Q. Tell me measured growth for CN(C)CCOc1ccc2c(c1)C(=O)/C(=C\c1ncc([N+](=O)[O-])n1C)C2 please.
A. -11.2% (active)

Q. Tell me measured growth for O=C1C2=C(Nc3cc([N+](=O)[O-])ccc3N2)OC1c1c2ccccc2cc2ccccc12 (stereo unspecified) please.
A. 20.5% (inactive)

Q. Tell me measured growth for CCCCCCCCCCCCCCCCN(CC)CC please.
A. 0.915% (active)

Q. Tell me measured growth for CCC1OC(OC)C=CC1=O (stereo unspecified) please.
A. 97.1% (inactive)

Q. Tell me measured growth for O=C1N[C@H]2[C@H](CS[C@H]2CCCCC(=O)N(CCP(c2ccccc2)c2ccccc2)CCP(c2ccccc2)c2ccccc2)N1 please.
A. 71.7% (inactive)

Q. Tell me measured growth for O=[N+]([O-])c1ccc2c(N=Nc3ccc4ccccc4c3O)c(O)cc(S(=O)(=O)O)c2c1 please.
A. 77.2% (inactive)

Q. Tell me measured growth for Cc1ccc2nc(C[n+]3ccc4ccccc4c3)ccc2c1 please.
A. 38.5% (inactive)

Q. Tell me measured growth for CC(C)(C)c1ccc(O)c(C2CCCCC2)c1 please.
A. 95% (inactive)

Q. Tell me measured growth for O=C(O)c1ccc2c3c(ncnc13)-c1ccccc1C2=O please.
A. 55.5% (inactive)

Q. Tell me measured growth for C=CCOc1ccc(N=NC(C#N)C#N)cc1 please.
A. 70.4% (inactive)

Q. Tell me measured growth for Cc1ccc(N=C=C(c2ccccc2)c2ccccc2)cc1 please.
A. 66.9% (inactive)
